Entry source: patent US3962446A

runDescription: Abstinence syndrome (bodyweight decrease) on the day after drug withdrawal following 4 weeks of subcutaneous dosing
Assay type: in vivo, male rats of Wistar strain
Set-up: key: +++: severe decrease (about 5% decrease); ++: moderate decrease; +: mild decrease; -: no decrease
assayContext: male Wistar rats, 20 mg/kg/day for 4 weeks, subcutaneous twice a day
Procedure: Compound for 4 weeks) syndrome Note: Groups of male rats of Wistar strain (bodyweight, 150 g), each grou consisting of 20 male rats, were subcutaneously given the test compound twice a day for 4 consecutive weeks. On the next day after drug withdrawal, the bodyweight was measured. The symbols have the following meanings: +++, severe decrease (about 5% decrease); ++, moderate decrease +, mild decrease; -, no decrease. The marked decrease is taken as an […]
assayEndpoint: Abstinence syndrome

CC12CCN(CCC#N)C(Cc3ccc(O)cc31)C2 (stereo not drawn); -
CC(=O)Oc1ccc2c(c1)C1(C)CCN(CCC#N)C(C2)C1C (stereo not drawn); -
CCC1C2Cc3ccc(O)cc3C1(CC)CCN2CCCC#N (stereo not drawn); -
CC12CCN(CCC#N)C(Cc3ccccc31)C2 (stereo not drawn); -

input: Retrieve Abstinence syndrome measured for CC1C2Cc3ccc(O)cc3C1(C)CCN2C (stereo not drawn) [reference compound] and print it.
output: ++

input: Retrieve Abstinence syndrome measured for CCC12CCN(CCCC#N)C(Cc3ccc(O)cc31)C2C (stereo not drawn) and print it.
output: -

input: Retrieve Abstinence syndrome measured for CC1C2Cc3ccc(O)cc3C1(C)CCN2CCC#N (stereo not drawn) and print it.
output: -

input: Retrieve Abstinence syndrome measured for CC1C2Cc3ccc(O)cc3C1(C)CCN2CCCC#N (stereo not drawn) and print it.
output: -

input: Retrieve Abstinence syndrome measured for CCC1C2Cc3ccc(O)cc3C1(C)CCN2CCCC#N (stereo not drawn) and print it.
output: -
